Test system: HL-60(TB) leukemia
assay remarks: NCI-60 one-dose screen, 48 h (100 = growth as untreated, 0 = no growth, -100 = all killed)
recorded conditions: 10 µM unless noted
About 83,000 compounds went through this panel and 20% of them were active in at least one assay; those are over-represented in the sample as a whole.
Parameter growth: see the listing below.
measured property: growth (%)

{"columns": ["molecule", "reading"],
 "data": [
  ["Cc1ccc(C(=O)NN2C(=O)/C(=C/C=C/c3ccco3)SC2=S)cc1", 30.4],
  ["O=C(CSc1cc[n+](CCCCO)c2ccccc12)n1ccc2ccccc21", 106],
  ["COC(=O)C(Cc1ccccc1)NS(=O)(=O)/N=C1\\NC(=O)NC1=C(Cl)Cl (stereo not drawn)", 96.1],
  ["CN(C)CCCOc1ccc2c(c1)CN(C(=O)c1cc(C(=O)N3Cc4cccc(F)c4C3)ccc1O)C2", 107],
  ["O=C1/C(=C/c2ccc([N+](=O)[O-])cc2)SC(=Nc2ccccc2)N1Nc1ccccc1", 25.8],
  ["Cn1cc(-c2nnc(N)nc2-c2c[nH]c3ccc(Br)cc23)c2cc(Br)ccc21", 90.8],
  ["CCOC(=O)/C(F)=C/C1CC1CCc1cccc(C(F)(F)F)c1 (stereo not drawn)", 91.4],
  ["Cc1[nH]c(C(=O)Nc2ccc(C(=O)NCC3CCNCC3)cc2OC(C)C)c(Cl)c1Cl", 73.1],
  ["Nc1nc(-c2cccc([N+](=O)[O-])c2)c(N=Nc2ccc([N+](=O)[O-])cc2Cl)s1", 6.8],
  ["C#C[C@]1(O)CC[C@H]2[C@@H]3CC=C4c5sc(Nc6ccncc6)nc5CC[C@]4(C)[C@H]3CC[C@@]21C", -24],
  ["COc1cc2cc(Oc3ccc(NC(=O)c4cccc(C(F)(F)F)c4)cc3)c(C)nc2cc1OCCN1CCCCC1", -51.6],
  ["C=C1C(=O)O[C@@H]2C[C@@H](C)[C@H](OC)CC(=O)[C@](C)(OC(C)=O)C[C@H](OC(=O)/C(C)=C\\C)[C@@H]12", 69.3],
  ["COc1ccc(/C=N/N=C(/c2ccccc2)c2ccc3nc(-c4ccc(Cl)cc4)[nH]c3c2)cc1", 67.2]
]}

###

Tested on: HCC-2998 colon
assay remarks: NCI-60 one-dose screen, 48 h (100 = growth as untreated, 0 = no growth, -100 = all killed)
recorded conditions: 10 µM
About 83,000 compounds went through this panel and 20% of them were active in at least one assay; those are over-represented in the sample as a whole. Active and inactive are the calls of the source. Rule for the calls: active = growth percent below 10; inactive = the rest.
Parameter growth: see the listing below.
measured property: growth

{"columns": ["compound", "reading"],
 "data": [
  ["CC1=C2C(=C[C@@](C)(COC(=O)c3ccc(S(=O)(=O)F)cc3)[C@@H]2OC(=O)c2ccc(S(=O)(=O)F)cc2)C(=O)[C@](C)(O)C12CC2", "-60% (active)"],
  ["O=C(CCCc1ccc(N(CCCl)CCCl)cc1)OCc1ccccc1", "101% (inactive)"],
  ["C=C1[C@@H](C)C2[C@H](Cc3ccccc3)NC(=O)[C@]23[C@H](OC(C)=O)/C=C/[C@@](C)(O)C(=O)[C@@H](C)C/C=C/[C@H]3[C@@H]1O (some centres undefined)", "78.5% (inactive)"],
  ["COC(=O)[C@H]1[C@@H](O)[C@@]2(O)c3c(OC)cc(OC)cc3O[C@@]2(c2ccc(OC)cc2)[C@@H]1c1ccccc1", "0.34% (active)"]
]}
